- ASSAY_TARGET: Rat recombinant PDE10a (rPDE10a) (Rattus norvegicus (Rat), UniProt Q9QYJ6)
- Sequence (Q9QYJ6 whole entry): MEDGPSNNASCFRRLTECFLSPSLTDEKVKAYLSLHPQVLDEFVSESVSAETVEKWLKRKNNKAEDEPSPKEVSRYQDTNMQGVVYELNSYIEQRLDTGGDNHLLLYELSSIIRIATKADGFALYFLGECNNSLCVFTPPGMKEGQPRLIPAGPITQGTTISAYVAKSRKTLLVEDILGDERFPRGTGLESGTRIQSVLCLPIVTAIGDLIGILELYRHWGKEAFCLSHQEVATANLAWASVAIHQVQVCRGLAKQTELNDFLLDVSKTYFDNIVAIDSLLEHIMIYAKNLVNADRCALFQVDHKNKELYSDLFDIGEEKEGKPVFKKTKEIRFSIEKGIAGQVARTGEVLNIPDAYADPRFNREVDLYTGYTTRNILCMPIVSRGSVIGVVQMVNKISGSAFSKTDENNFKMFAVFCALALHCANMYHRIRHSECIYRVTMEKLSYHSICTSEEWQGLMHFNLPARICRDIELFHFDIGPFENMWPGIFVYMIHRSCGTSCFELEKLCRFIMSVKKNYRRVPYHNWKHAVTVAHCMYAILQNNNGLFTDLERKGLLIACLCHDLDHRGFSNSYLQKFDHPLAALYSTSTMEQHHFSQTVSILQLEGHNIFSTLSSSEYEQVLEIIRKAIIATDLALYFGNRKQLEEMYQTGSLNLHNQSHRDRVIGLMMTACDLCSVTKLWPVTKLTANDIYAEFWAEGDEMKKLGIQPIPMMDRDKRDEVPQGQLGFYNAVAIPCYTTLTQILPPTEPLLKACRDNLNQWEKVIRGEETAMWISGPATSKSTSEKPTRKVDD
- EXPERIMENTAL_DETAILS: In vitro assay PDE10a: rat recombinant PDE10a SPA with 3H-cAMP substrate, IC50
- Type: biochemical
- MEASUREMENT_CONDITIONS: 60 nM cAMP, read-out: rPDE10a2 IC50
Structures can show the parent of a compound that is named as a salt.
METRIC_NAME: IC50 (nM)

CS(=O)(=O)Nc1ccc(-c2c(CCc3ccc4ccccc4n3)nc3c(N4CCOCC4)ccnn23)cc1 [compound 45] | 5
CC(C)[C@H](NC(=O)c1ccc(-c2c(CCc3ccc4ccccc4n3)nc3c(N4CCOCC4)ccnn23)cc1)C(=O)O [Cpd 75] | 7
C(=C\c1nc2c(N3CCOCC3)ccnn2c1-c1cccc(-c2nnn[nH]2)c1)/c1ccc2ccccc2n1 [Cpd 105, trifluoroacetic acid salt] | 5
O=C(O)c1ccc(-c2c(C#Cc3nc4ccccc4s3)nc3c(N4CCOCC4)ccnn23)cc1 [Cpd 87] | 1

P = O=C(O)c1ccc2ccc(/C=C/c3cn4nc(Cl)cc(N5CCOCC5)c4n3)nc2c1 [Cpd 94]
Q = O=C(O)c1ccc(-c2c(/C=C/c3ccc4ccccc4n3)nc3c(N4CCOCC4)ccnn23)nc1 [compound 113]
R = CS(=O)(=O)NC(=O)c1cccc2nc(/C=C/c3nc4c(N5CCOCC5)ccnn4c3-c3ccccc3)ccc12 [Cpd 122]
Reorder the items by IC50, least to greatest. Please express your ranking as an ordered list of the labels. Q, R, P
